Assay: AUC (0 to time) in Sprague-Dawley rat at 0.5 mg/kg, iv
Assay type: ADME, organism-based
Set-up: dose 0.5 mg/kg, route intravenous
Details: plasma
reported.metric: AUC (ng·h/mL)
Please give a number only; it is taken to be in ng·h/mL.

Problem: Dear colleague, I am looking for the recorded AUC of the following compound: CN(C)CCC(c1ccc(Cl)c(Cl)c1)N1CCOCC1 (stereo unspecified)
Result: 78.6

###

Target: Sodium-dependent dopamine transporter (Homo sapiens, UniProt Q01959)
Sequence (Q01959 whole entry): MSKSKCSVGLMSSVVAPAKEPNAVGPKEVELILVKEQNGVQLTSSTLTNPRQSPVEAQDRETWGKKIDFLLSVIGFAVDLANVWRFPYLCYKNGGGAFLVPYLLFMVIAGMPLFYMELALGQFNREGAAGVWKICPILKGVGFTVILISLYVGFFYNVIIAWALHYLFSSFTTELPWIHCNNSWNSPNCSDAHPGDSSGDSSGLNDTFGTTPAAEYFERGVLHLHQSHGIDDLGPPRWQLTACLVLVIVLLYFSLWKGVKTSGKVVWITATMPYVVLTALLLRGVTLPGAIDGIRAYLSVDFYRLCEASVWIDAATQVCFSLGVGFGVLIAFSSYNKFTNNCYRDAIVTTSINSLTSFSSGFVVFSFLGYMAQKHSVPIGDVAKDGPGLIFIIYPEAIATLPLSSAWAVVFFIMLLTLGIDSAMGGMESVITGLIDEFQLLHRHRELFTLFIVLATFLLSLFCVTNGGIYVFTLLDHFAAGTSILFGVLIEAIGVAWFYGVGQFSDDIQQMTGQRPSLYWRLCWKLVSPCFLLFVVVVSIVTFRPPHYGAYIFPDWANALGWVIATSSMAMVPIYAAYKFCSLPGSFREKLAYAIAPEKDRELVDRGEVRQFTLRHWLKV
Assay: Inhibition of [3H]-DA uptake in human dopamine transporter expressed in CHO cells at 10 uM by scintillation counting
reported.metric: inhibition (%)
All answers are understood in %, so give the number only.

See these solved cases before continuing.
INSERT INTO results (compound, reported_metric, assay_result) VALUES
  ('Clc1ccc(C(CCN2CCCCC2)N2CCOCC2)cc1Cl (stereo not given)', 'inhibition', 68.1),
  ('COc1ccc2cc(C(CCN3CC=C(Cc4ccccc4)CC3)N3CCCC3)ccc2c1Cl (stereo not given)', 'inhibition', 79.5),
  ('C1=C(Cc2ccccc2)CCN(CCC(c2csc3ccccc23)N2CCCCC2)C1 (stereo not given)', 'inhibition', 77.4);

Problem: Data request, read-out inhibition, for C1=C(Cc2ccccc2)CCN(CCC(c2csc3ccccc23)N2CCNCC2)C1 (stereo not given)
Result: 83.9

Problem: Repeat with COc1ccc2cc(C(CCN(C)Cc3ccccc3)N3CCOCC3)ccc2c1Cl (stereo not given)
Result: 2.5
